Compiled Ki measurements on Histamine H3 receptor (Homo sapiens, UniProt Q9Y5N1) taken from the literature.
Numbers only, in nM.

Guide cases for Ki, answers given:
# compound, test.readout, value.measured
rows = [
    ("CC(C)c1ccc(C(=O)N2CCN(C3CCC3)CC2)cc1", "Ki", 11),
    ("Fc1ccc(NCc2ccc(N3CCC(CN4CCCC4)CC3)cc2)cc1", "Ki", 48),
    ("Cc1cccn2cc(-c3ccc(C(=O)OCCN(C)C)cc3)nc12", "Ki", 89),
    ("c1cc(-c2ccc(CN3CCCC3)cc2)c(CN2CCCC2)s1", "Ki", 63),
    ("Cc1cccn2cc(-c3ccc(NCCCN4CCCCC4)cc3)nc12", "Ki", 7),
    ("CN(C)CCC(Oc1ccccc1Cl)c1ccc(OCCCN2CCCCC2)cc1 (stereo not shown)", "Ki", 0.9),
    ("CCOc1ccc(C2CN(C)Cc3cc(OCCCN4CCC(F)CC4)ccc32)cc1 (stereo not shown)", "Ki", 5),
]

Now for a further compound.
Query: For the compound CN(C)Cc1ccc(N2CCC(CN3CCCC3)CC2)c(F)c1 , report Ki.
Result: 4
